experiment: ATG_NFI_CIS: Attagene CIS-FACTORIAL HepG2 Assay for human Nuclear Factor I (NFI) (AID 2282989); details: HepG2 cis-regulatory reporter, NFI response element transcription; actives raise or lower the signal
Calls of active or inactive are those of the source. Rule for the calls: active = hit-call score of the fitted dose curve at least 0.9, where 1 is the maximum; inactive = score below 0.9.
Bench note: report the call from active, inactive

Example entries and their recorded answers appear below.
- molecule: "OCC(O)CC(F)(F)C(F)(F)C(F)(F)C(F)(F)F (centres undefined)"
  classification: "inactive"
- molecule: "CCOC(C=C(C)CCC=C(C)C)OCC"
  classification: "inactive"
- molecule: "CC1=CC2C3C=CC(C3)C2C1C (centres undefined)"
  classification: "active"
- molecule: "O=C=NCc1cccc(CN=C=O)c1"
  classification: "inactive"
- molecule: "O=S(=O)(O)CCC(F)(F)C(F)(F)C(F)(F)C(F)(F)C(F)(F)C(F)(F)C(F)(F)C(F)(F)F"
  classification: "inactive"

Could you check what this test reported for `OCCCc1cccnc1` ?
inactive

Could you check what this test reported for `Cc1ccc(O)c(-n2nc3ccccc3n2)c1` ?
inactive

Could you check what this test reported for `CCOCOCC` ?
inactive

Could you check what this test reported for `CN1CN(C)CN(C)C1` ?
inactive

Could you check what this test reported for `NS(=O)(=O)C(F)(F)C(F)(F)C(F)(F)C(F)(F)C(F)(F)C(F)(F)F` ?
inactive

Could you check what this test reported for `NC(=O)C(F)(F)C(F)(F)C(F)(F)C(F)(F)C(N)=O` ?
inactive

Could you check what this test reported for CC(O)C#CC(C)O (centres undefined) ?
active
